Every entry's value here was drawn from the supplement of paper PMC10567573.

B1: HDAC6 (parent)
chain: ACAQLATGAACRLVEAVLSGEVLN

- Variants of: B1
- protocol: protein stability index of a GFP-peptide fusion (GPS, HEK-293T) (PSI 1-6); higher = more stable;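 note: lentivirally expressed fusions sorted by FACS into six bins by GFP to DsRed ratio, PSI derived from sequencing read proportions per bin multiplied by bin number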
- condition details: c terminus: a fixed tail appended
readout name: protein stability index

Return reported protein stability index; argument: A10K
2.38

Return reported protein stability index; argument: Q4E
2.92

Return reported protein stability index; argument: L5N
1.81

Return reported protein stability index; argument: N24F
1.85

Return reported protein stability index; argument: R12S
1.65

Return reported protein stability index; argument: L18P
3.73

Return reported protein stability index; argument: L23M
4.41

Return reported protein stability index; argument: V14H
2.56

Return reported protein stability index; argument: A3F
3.94

Return reported protein stability index; argument: L23N
1.54

Return reported protein stability index; argument: V22L
2.09
